- Test System: Aldehyde dehydrogenase 1A1 (Homo sapiens)
- Method: qHTS Assay for Inhibitors of Aldehyde Dehydrogenase 1 (ALDH1A1)
- Measurement Context: Purified ALDH1A1, NADH fluorescence, propionaldehyde substrate; series mostly up to 75.3 µM
Screen size: about 220,000 compounds; about 16,000 (7.3%) were called active. About 25% were inconclusive and are not listed. Calls follow the shape of the dose curve; as a rule, active = well fitted inhibition curve with a large enough effect (not every such curve was filed as active); inconclusive = small, poorly fitted or top-dose-only effect, or another doubt; inactive = no such curve, though single readings can be large or run the other way. Only a selection was taken, and actives are over-represented in it overall.
The reply should name one outcome from label 1 for active, label 0 for inactive

Examples with answers:
> print(dat)
                                   compound                               test.system    class
1         CC(C)CNC(=O)C(=O)Nc1ccc(N(C)C)cc1  Aldehyde dehydrogenase 1A1 (Homo sapiens)  label 0
2       CN1C(=O)/C(=C\c2cc(Br)cs2)c2ccccc21  Aldehyde dehydrogenase 1A1 (Homo sapiens)  label 0
3  C/C(=N/NC(=O)CSc1ccccn1)c1ccc([N+](=O)[O-])cc1  Aldehyde dehydrogenase 1A1 (Homo sapiens)  label 1
4  O=P(O)(O)C(O)c1ccc2ccccc2c1 (configuration not stated)  Aldehyde dehydrogenase 1A1 (Homo sapiens)  label 0
5    Cc1ccc(/C=N/NC(=O)CNC(=O)COc2ccccc2)o1  Aldehyde dehydrogenase 1A1 (Homo sapiens)  label 0

Qu. Identify the outcome logged in this assay for the compound shown: Cc1cccc(NC(=O)CN2C(=O)c3ccccc3C2=O)c1C
Ans. label 0

Qu. Now try OCCC1CN(Cc2cnc(-c3ccccc3)s2)CCN1CCc1ccccc1 (configuration not stated) .
Ans. label 0

Qu. Now try Cc1ccnc(N)c1 .
Ans. label 0

* * *

- Test System: Aldehyde dehydrogenase 1A1 (Homo sapiens)
- Method: qHTS Assay for Inhibitors of Aldehyde Dehydrogenase 1 (ALDH1A1)
- Measurement Context: Purified ALDH1A1, NADH fluorescence, propionaldehyde substrate; series mostly up to 75.3 µM
Screen size: about 220,000 compounds; about 16,000 (7.3%) were called active. Another 25% or so got no clear call; they are omitted. The call rests on the fitted dose curve; in most records, active means well fitted inhibition curve with a large enough effect (not every such curve was filed as active); inconclusive means small, poorly fitted or top-dose-only effect, or another doubt; inactive means no such curve, though single readings can be large or run the other way. The list comes from a sample in which actives are over-represented; it also holds close analogues and randomly drawn compounds.
The reply should name one outcome from active, inactive

Examples with answers:
> print(dat)
                                   molecule     class
1  COc1ccccc1NC(=O)CSc1nnc(C)n1CC1CCCO1 (centres undefined)  inactive
2  CC(C)NC(=O)NCCCCCCS(C)=O (centres undefined)  inactive
3       COc1ccc(OC)c(S(=O)(=O)Nc2ccccc2F)c1  inactive
4  Cn1c(=O)[nH]c(=O)c2c1nc(Br)n2CCCCSc1nc2ccccc2o1  inactive

Qu. Identify the outcome logged in this assay for the molecule shown: CCC(C)[C@@H](N)C(=O)O (some centres undefined)
Ans. inactive

Qu. Now try Cc1[nH]c2c(C(=O)N3CCCC(CCC(=O)NCc4ccccc4F)C3)cccc2c1C (centres undefined) .
Ans. inactive

Qu. Now try COC(=O)c1ccc(-c2noc(CN(Cc3ccccn3)CC3CCCO3)n2)cc1 (centres undefined) .
Ans. inactive

Qu. Now try C#CC(C)(C)NC(=O)CSc1nc2c(c(=O)n(C)c(=O)n2C)n1CCCC .
Ans. inactive

Qu. Now try COC(=O)Cc1csc(Nc2c(C)n(C)n(-c3ccccc3)c2=O)n1 .
Ans. inactive

Qu. Now try CCOC(=O)c1nn(-c2cccc(C)c2)cc1C(=O)c1ccccc1 .
Ans. active

Qu. Now try COCCNS(=O)(=O)c1cc(Br)ccc1OC .
Ans. inactive

Qu. Now try CCn1c(-c2cc(OC)ccc2OC)csc1=Nc1c(C)n(C)n(-c2ccccc2)c1=O .
Ans. active

Qu. Now try Cc1nc(-c2ccc(Cl)cc2)sc1C(=O)CBr .
Ans. active

Qu. Now try CCCCCCCC[C@@H](O)/C=C/C=C/C=C\[C@@H](O)CCCC(=O)O .
Ans. inactive

Qu. Now try CC(=O)CCC(=O)c1ccc2ccccc2c1 .
Ans. inactive

Qu. Now try Cc1ccc(C(=O)c2c(NC(=O)c3ccncc3)sc3c2CCCC3)cc1 .
Ans. inactive

Origin of values: PubChem BioAssay AID1030
